These entries and their values trace back to PubChem BioAssay (NCI).

# Test system: SF-268 CNS
# Assay Comment: NCI-60 one-dose screen, 48 h (100 = growth as untreated, 0 = no growth, -100 = all killed)
# Run Conditions: 10 µM unless noted
The panel holds about 83,000 compounds, 20% with a hit somewhere; the sample as a whole holds those more often.
We label by threshold. Values of growth strictly beneath 90% are MET. Values of 90% and up are NOT MET.

INSERT INTO results (molecule, class_label) VALUES
  ('NC(=O)c1cccc(-c2ccccc2N2CCCCC2)c1', 'NOT MET'),
  ('O=C(OC(OC(=O)c1cc(Cl)cc(Cl)c1)c1cccc2ccccc12)c1ccccc1 (centres undefined)', 'NOT MET'),
  ('Cc1ccc2[nH]c(=S)n(-c3ccc(S(=O)(=O)Nc4ccc(Cl)nn4)cc3)c(=O)c2c1', 'NOT MET'),
  ('CCNC(=O)c1[nH]cc(-c2ccc(OC)cc2)c1-c1cc(OC)c(OC)c(OC)c1', 'MET'),
  ('O=C1NC(=O)C(=Cc2cn(Cc3ccccn3)c3ccccc23)C(=O)N1', 'NOT MET'),
  ('COc1cc2nc(-c3ccc(C(F)(F)F)cc3)cc(OCCCN3CCC(O)CC3)c2cc1OC', 'MET'),
  ('CCSc1ccc2c(c1)N(CCCN1CCN(C)CC1)c1ccccc1S2', 'MET'),
  ('COc1ccc(C(=O)c2cc3c(N)c(C(=O)Nc4cccc(Cl)c4C)sc3nc2C)cc1', 'MET'),
  ('Clc1ccc(C2CC(c3cccc(Nc4ccncc4)c3)=NN2c2ccc(Cl)cc2)cc1 (centres undefined)', 'MET'),
  ('O=C(O)CNC(=O)CN1C(=O)c2ccccc2C1=O', 'NOT MET'),
  ('COc1cc2nc(-c3ccc(C(F)(F)F)cc3)cc(OCCCN3CCCCC3)c2cc1OC', 'MET'),
  ('CC1=NNC(=O)C1CCC(=O)N/N=C(\C)c1ccc2ccccc2c1 (centres undefined)', 'NOT MET'),
  ('COc1cc(NCC(O)CN(CC(C)C)C2CCCC2)c2ncccc2c1 (centres undefined)', 'MET'),
  ('Cc1ccc(C2C3CC4CCCCC4N3[C@@]3(C(=O)Nc4cc(Cl)ccc43)C2C(=O)c2nc3ccccc3[nH]2)cc1 (some centres undefined)', 'MET'),
  ('CCN(CC)S(=O)(=O)c1cccc([N+](=O)[O-])c1', 'NOT MET'),
  ('CCc1c(Nc2ccc(C)cc2)nc(N)[nH]c1=O', 'NOT MET'),
  ('Cc1[nH]n(C(=O)c2ccncc2)c(=O)c1N=Nc1ccc(F)c(Cl)c1', 'NOT MET'),
  ('CCCCOc1ccc(/C=N/Nc2cc(C)nc3ccc(Cl)cc23)cc1', 'MET'),
  ('C=C1C(=O)O[C@H]2[C@H]1CC/C(CNC(=O)/C=C/c1ccc(Br)cc1)=C\CC[C@@]1(C)O[C@@H]21', 'MET'),
  ('COc1ccc(/C=C/C(=O)c2ccc(OC)c(OC)c2)cc1O', 'MET'),
  ('CC(=O)NCCCS(=O)(=O)O', 'NOT MET'),
  ('O=C(CNCCO)Nc1ccc2ncnc(Nc3ccc(OCc4cccc(F)c4)c(Cl)c3)c2c1', 'MET'),
  ('CN1CCN(CCCNc2nccc(-c3c(-c4ccc(F)c(O)c4)nc4sccn34)n2)S1(=O)=O', 'NOT MET'),
  ('CN1C(=O)N(C)C2NC(N/N=C/c3ccccc3)=NC21 (centres undefined)', 'NOT MET'),
  ('COc1ccc(-c2nn(Cc3ccccc3)c3c2-c2oncc2CC3)cc1OC', 'NOT MET'),
  ('COc1cccc2c1C(=O)c1c(O)c3c(c(O)c1C2=O)C[C@@](O)(C(=O)CO)C[C@@H]3O[C@H]1C[C@H](N)[C@@H](O)[C@H](C)O1', 'MET'),
  ('COc1cc2nc(-c3ccc(C(F)(F)F)cc3)cc(OCCN3CCC(O)CC3)c2cc1OC', 'MET'),
  ('CC[C@H](CC[C@@H](C)[C@H]1CC[C@H]2[C@@H]3CC=C4C[C@@H](OCCc5nn[nH]n5)CC[C@]4(C)[C@H]3CC[C@]12C)C(C)C', 'NOT MET'),
  ('COc1ccc(NC(=O)c2sc3nc(C)c(C(=O)CCc4cccc(OC)c4)cc3c2N)cc1', 'MET'),
  ('COc1cc(C2CC(c3cccc(Nc4ccncc4)c3)=NN2C(C)=O)cc(OC)c1OC (centres undefined)', 'NOT MET'),
  ('CSc1nc(O)c(-c2ccccc2)c(=O)[nH]1', 'NOT MET'),
  ('CNC(=O)NCC1OC(n2cnc3c(NC(=O)Nc4ccccc4)ncnc32)C(O[Si](C)(C)C(C)(C)C)C1O[Si](C)(C)C(C)(C)C (centres undefined)', 'MET'),
  ('O=C(N/N=C/c1cccc(O)c1)c1ccccc1Nc1cccc(C(F)(F)F)c1', 'MET'),
  ('COc1ccc(C(O)c2cc3c(N)c(C(=O)Nc4ccc(Cl)cc4)sc3nc2C)cc1 (centres undefined)', 'MET');
